# ASSAY REMARKS: qHTS profiling for inhibitors of Plasmodium falciparum (HB3) proliferation (AID 743324);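 note: 100% = DMSO vehicle wells and 0% = artemisinin-treated control wells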
# DETAILS: Plasmodium falciparum HB3 blood-stage proliferation; at 28.7 µM (top of the series) unless noted
MEASUREMENT NAME: remaining proliferation (% of control), lower = more inhibition (%)
Return type: number; implicit unit %.

Examples with answers:
{"columns": ["CHEMICAL STRING", "READOUT VALUE"],
 "data": [
  ["COc1cc(Nc2c(C#N)cnc3cc(OCCCN4CCN(C)CC4)c(OC)cc23)c(Cl)cc1Cl", 1.13],
  ["CC(C)C[C@H](NC(=O)[C@H](Cc1ccccc1)NC(=O)c1cnccn1)B(O)O", -0.165],
  ["Cc1cccc(C)c1OCC(=O)N[C@@H](Cc1ccccc1)[C@@H](O)C[C@H](Cc1ccccc1)NC(=O)[C@H](C(C)C)N1CCCNC1=O", 0.361],
  ["CCOC(=O)C1=C(O)C(=O)N(Cc2ccccc2)C1", 67.7]
]}

Find the recorded remaining proliferation (% of control), lower = more inhibition belonging to `CC(C)c1ccc2c(c1)c(SC(C)(C)C)c(CC(C)(C)C(=O)O)n2Cc1ccc(Cl)cc1` and report it. 22.8

Find the recorded remaining proliferation (% of control), lower = more inhibition belonging to `Cc1cccc(C#Cc2ccccc2)n1` and report it. 75.6

Find the recorded remaining proliferation (% of control), lower = more inhibition belonging to `CCN(CC)CCOc1ccc(Nc2ncc3cc(-c4c(Cl)cccc4Cl)c(=O)n(C)c3n2)cc1` and report it. -0.176

Find the recorded remaining proliferation (% of control), lower = more inhibition belonging to `Cc1cc(C2CCCCC2)n(O)c(=O)c1` and report it. -0.0898

* * *

Recorded max response values for a group of compounds are listed next.
# Tested on: CRL-7250
# ASSAY REMARKS: Cytotoxic Profiling of Annotated Libraries Using Quantitative High-Throughput Screening (AID 1296008); note: % is set by controls: 0 for no effect and ±100 for the full control effect; nearly all actives have a fitted effect of over 60% in size
# DETAILS: Five cell lines viability, CellTiter-Glo ATP luminescence, 48-72 h; stronger effect = lower value
Results filed as inconclusive are left out.
Return type: number; implicit unit %.

Examples with answers:
{"columns": ["COMPOUND", "MEASUREMENT NAME", "READOUT VALUE"],
 "data": [
  ["CC(C)(S)[C@@H](N)C(=O)O", "max response", 1.05],
  ["Cc1cccc(-c2[nH]ncc2-c2ccc3ncccc3n2)n1", "max response", -2.02],
  ["Cc1ccc(C)c(OCCCC(C)(C)C(=O)O)c1", "max response", -2.44],
  ["C[C@@H](c1ncncc1F)[C@](O)(Cn1cncn1)c1ccc(F)cc1F", "max response", -18.6]
]}

Find the recorded max response belonging to `Oc1ccc2ccccc2c1SSc1c(O)ccc2ccccc12` and report it. -5.27

Find the recorded max response belonging to `CN(C)c1ccc(O)c2c1C[C@H]1C[C@H]3[C@H](N(C)C)C(=O)C(C(N)=O)=C(O)[C@@]3(O)C(=O)C1=C2O` and report it. -30

Find the recorded max response belonging to O=C1c2c(O)cc(O)cc2OC(c2ccc(O)c(O)c2)C1O (stereo unspecified) and report it. -1.4

Find the recorded max response belonging to `CC(C)c1ccc2c(c1)c(SC(C)(C)C)c(CC(C)(C)C(=O)O)n2Cc1ccc(Cl)cc1` and report it. -29.4

* * *

# ASSAY REMARKS: High-throughput drug toxicity screening in the BPDCN cell line Gen2.2 (AID 1224824);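 note: cells exposed to compounds for 48 h before reading; 100% = DMSO and 0% = bortezomib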
# DETAILS: Gen2.2 BPDCN cells; at 45.8 µM (top of the series) unless noted
Doc: threshold 80% (exclusive). Items with cell viability, % of control (lower = more cytotoxic) beneath it return class 1; others return class 0.

Use these answered entries as a reference point.
{"columns": ["MOLECULE", "LABEL VALUE"],
 "data": [
  ["Nc1nc(OCc2ccccc2)c2[nH]cnc2n1", "class 1"],
  ["O=C(O)c1cccnc1Nc1cccc(C(F)(F)F)c1", "class 0"],
  ["CCCCCCCCOc1ccccc1C(=O)Nc1ccc(C(=O)OCC[N+](C)(CC)CC)cc1", "class 1"],
  ["NC(=O)Cc1cccc(C(=O)c2ccccc2)c1N", "class 0"],
  ["Clc1ccc(C(Cn2ccnc2)OCc2ccsc2Cl)c(Cl)c1 (stereo unspecified)", "class 1"]
]}

Moving on to another molecule below.
cell viability, % of control (lower = more cytotoxic) under 80%? Item: `CC(C)C[C@H](NC(=O)[C@H](Cc1ccccc1)NC(=O)c1cnccn1)B(O)O` class 1

* * *

# ASSAY REMARKS: S16 Schwann cell PMP22 intronic element beta-lactamase assay (AID 624044); note: nearly all actives have a fitted effect of over 15% in size
# DETAILS: S16 rat Schwann cells, PMP22 element beta-lactamase FRET, 24 h; series mostly up to 38.3 µM
Records with an inconclusive call do not appear. Active and inactive are the calls of the source. The call rests on the fitted dose curve.
Hi there, use one of these labels in your reply, thanks! active, inactive

Use these answered entries as a reference point.
{"columns": ["MOLECULE", "LABEL VALUE"],
 "data": [
  ["CCCCc1ccc2nc(NC(=O)OC)[nH]c2c1", "active"],
  ["O=C(NCC1CCCCN1)c1cc(OCC(F)(F)F)ccc1OCC(F)(F)F (centres undefined)", "inactive"],
  ["CS(=O)(=O)OCCCCOS(C)(=O)=O", "inactive"]
]}

Moving on to another molecule below.
Which outcome was entered for the molecule `COc1c2occc2cc2ccc(=O)oc12` in this test? inactive

* * *

Recorded parasite growth, % of DMSO control values for a group of compounds are listed next.
# ASSAY REMARKS: qHTS profiling of the MIPE4 collection as inhibitors of Plasmodium falciparum (3D7) proliferation (AID 743344);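 note: scaled between DMSO vehicle wells and 0.29 µM artemisinin as full inhibition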
# DETAILS: P. falciparum 3D7 in erythrocytes, SYBR Green DNA fluorescence, 72 h; at 28.5 µM (top of the series) unless noted

{"columns": ["COMPOUND", "parasite growth, % of DMSO control"],
 "data": [
  ["O=C(NCCO[N+](=O)[O-])c1cccnc1", "102%"],
  ["NS(=O)(=O)c1cc(C(=O)O)c(NCc2ccco2)cc1Cl", "58.2%"],
  ["Cc1cccc(C#Cc2ccccc2)n1", "23.9%"],
  ["Nc1cccc2c1CN(C1CCC(=O)NC1=O)C2=O (configuration not stated)", "83.6% [at 57.5 µM]"],
  ["CN(C)CCc1c[nH]c2ccc(Cn3cncn3)cc12", "89.2%"],
  ["O=c1ccc2ccc(O)c(O)c2o1", "169%"]
]}

Find the recorded parasite growth, % of DMSO control belonging to `CN1CCC(=C2c3ccccc3CCc3sccc32)CC1` and report it. 8.53%

* * *

# ASSAY REMARKS: qHTS to identify inhibitors of the type 1 interferon - major histocompatibility complex class I in skeletal muscle: primary screen against the NCATS Mechanism Interrogation Plate v5.0 (MIPE) Libary (AID 1347411); note: nearly all actives have a fitted effect of over 65% in size
# DETAILS: iHSKM cells + IFN-b, HiBiT-tagged MHC-I luminescence, 24 h; series mostly up to 45.8 µM
Records with an inconclusive call do not appear. Activity calls are given as the source filed them. Calls come from the whole dose curve; as a rule, active = well fitted inhibition curve with a large enough effect; inconclusive = small, poorly fitted or top-dose-only effect; inactive = no such curve, though single readings can be large or run the other way.
Hi there, use one of these labels in your reply, thanks! t (active), f (inactive)

{"columns": ["CHEMICAL STRING", "LABEL VALUE"],
 "data": [
  ["O=Nc1c(-c2c(O)[nH]c3cc(Br)ccc23)[nH]c2ccccc12", "t"]
]}

Which outcome was entered for the compound `CCOC(=O)C1=C[C@@H](OC(CC)CC)[C@H](NC(C)=O)[C@@H](N)C1` in this test? f

Which outcome was entered for the compound `Nc1cc(C(Cl)=C(Cl)Cl)c(S(N)(=O)=O)cc1S(N)(=O)=O` in this test? f

* * *

# ASSAY REMARKS: Quantitative high throughput screen for delayed death inhibitors of the malarial parasite plastid, 48 hour incubation (AID 488752); note: nearly all actives have a fitted effect of over 65% in size
# DETAILS: Plasmodium falciparum growth; series mostly up to 28.7 µM
Results filed as inconclusive are left out. Calls of active or inactive are those of the source. Calls come from the whole dose curve; as a rule, active = well fitted inhibition curve with a large enough effect; inconclusive = small, poorly fitted or top-dose-only effect, or effect the other way; inactive = flat fitted curve, though single readings scatter.
Hi there, use one of these labels in your reply, thanks! active, inactive

Use these answered entries as a reference point.
{"columns": ["COMPOUND", "LABEL VALUE"],
 "data": [
  ["O=C1c2c(O)cc(O)cc2OC(c2ccc(O)c(O)c2)C1O (stereo unspecified)", "inactive"],
  ["COc1ccc2cc([C@H](C)C(=O)O)ccc2c1", "inactive"],
  ["Oc1ccc(-c2nc(-c3ccc(F)cc3)c(-c3ccncc3)[nH]2)cc1", "inactive"],
  ["O=c1cc(N2CCOCC2)oc2c(-c3ccccc3)cccc12", "inactive"],
  ["COc1cc2nc(N3CCN(C(=O)C4CCCO4)CC3)nc(N)c2cc1OC (stereo unspecified)", "inactive"],
  ["C[C@@H](N)C1CCC(C(=O)Nc2ccncc2)CC1 (stereo partly specified)", "inactive"],
  ["CNC[C@H](O)c1ccc(O)c(O)c1", "inactive"],
  ["CC(C)c1ccc2c(c1)c(SC(C)(C)C)c(CC(C)(C)C(=O)O)n2Cc1ccc(Cl)cc1", "active"]
]}

Which outcome was entered for the compound `O=C(CCc1ccc(O)cc1)c1c(O)cc(O)cc1O` in this test? inactive

Which outcome was entered for the compound `CC1(C)NC(=O)N(c2ccc([N+](=O)[O-])c(C(F)(F)F)c2)C1=O` in this test? inactive

Which outcome was entered for the compound `O=Nc1c(-c2c(O)[nH]c3cc(Br)ccc23)[nH]c2ccccc12` in this test? active
